All figures here come from patent US4958010A.

System: HCT/VP35
Test: in vitro cytotoxicity assay, HCT/VP35 human colon tumor resistant to etoposide
Format: cell-based
Conditions: Homo sapiens, HCT/VP35, etoposide-resistant line; concentration required to inhibit cell growth by 50%, four-fold serial dilution; replicate determinations on separate lines
Hi there, I'd appreciate the recorded IC50 for every entry that follows.
Kindly answer with a numeric value in µg/mL, unit omitted.

IC50 measured on `COc1cc([C@@H]2c3cc4c(cc3[C@@H](O[C@@H]3O[C@@H]5CO[C@@H](C)O[C@H]5[C@H](O)[C@H]3O)[C@H]3CNC(=O)[C@H]23)OCO4)cc(OC)c1O` = 103

Record COc1cc([C@@H]2c3cc4c(cc3[C@@H](O[C@@H]3O[C@@H]5CO[C@@H](C)O[C@H]5[C@H](O)[C@H]3O)[C@H]3CN(N=C(C)C)C(=O)[C@H]23)OCO4)cc(OC)c1O (relative stereo) . Reported IC50: 103

Looking up `CCCCCCCC(=O)Oc1c(OC)cc([C@@H]2c3cc4c(cc3[C@@H](O[C@@H]3O[C@@H]5CO[C@@H](C)O[C@H]5[C@H](O)[C@H]3O)[C@H]3CNC(=O)[C@H]23)OCO4)cc1OC` , I see its IC50 listed as 18.7

Per the record, `COc1cc([C@@H]2c3cc4c(cc3[C@@H](O[C@@H]3O[C@@H]5CO[C@@H](C)O[C@H]5[C@H](O)[C@H]3O)[C@H]3CN(N=Cc5ccccc5)C(=O)[C@H]23)OCO4)cc(OC)c1O` has IC50 of 38.3

* * *

Test system: HCT/VP35
Experiment: in vitro cytotoxicity assay, HCT/VP35 human colon tumor resistant to etoposide
Type: cell-based
Conditions: Homo sapiens, HCT/VP35, etoposide-resistant line; concentration required to inhibit cell growth by 50%, four-fold serial dilution; replicate determinations on separate lines
endpoint_name: IC50 (µg/mL)
Write down the numeric answer in µg/mL and omit the unit.

Per the record, `CCCCCCCC(=O)Oc1c(OC)cc([C@@H]2c3cc4c(cc3[C@@H](O[C@@H]3O[C@@H]5CO[C@@H](C)O[C@H]5[C@H](O)[C@H]3O)[C@H]3CN(N=Cc5ccccc5)C(=O)[C@H]23)OCO4)cc1OC` has IC50 of 25.6

* * *

Test system: SW900 human lung
Test: in vitro cytotoxicity assay, SW900 human lung
Format: cell-based
Conditions: Homo sapiens, SW900, concentration required to inhibit cell growth by 50%, four-fold serial dilution; replicate determinations on separate lines
Exercise: for every item that follows, state its recorded IC50.
# value in µg/mL; strip the unit string

Looking up COc1cc([C@@H]2c3cc4c(cc3[C@@H](O[C@@H]3O[C@@H]5CO[C@@H](C)O[C@H]5[C@H](O)[C@H]3O)[C@@H](CO)[C@@H]2C(N)=O)OCO4)cc(OC)c1O (relative stereo) [Example 2] , I see its IC50 listed as 106

Just so you know, measured IC50 for COc1cc([C@@H]2c3cc4c(cc3[C@@H](O[C@@H]3O[C@@H]5CO[C@@H](C)O[C@H]5[C@H](O)[C@H]3O)[C@H]3CN(N=Cc5ccccc5)C(=O)[C@H]23)OCO4)cc(OC)c1O [Example 3] came out at 36.5

* * *

Consider the following compounds; for each one, report its IC50.
Tested on: HCT-116
Experiment: in vitro cytotoxicity assay, HCT-116 human colon tumor
Format: cell-based
Conditions: Homo sapiens, HCT-116, concentration required to inhibit cell growth by 50%, four-fold serial dilution; replicate determinations on separate lines
Numbers only here, please. The scale is µg/mL.

Note to self: IC50 of COc1cc([C@@H]2c3cc4c(cc3[C@@H](O[C@@H]3O[C@@H]5CO[C@@H](C)O[C@H]5[C@H](O)[C@H]3O)[C@@H](CO)[C@@H]2C(N)=O)OCO4)cc(OC)c1O (relative stereo) [Example 2] with HCT-116 was 78.6

HCT-116 assay, compound COc1cc([C@@H]2c3cc4c(cc3[C@@H](O[C@@H]3O[C@@H]5CO[C@@H](C)O[C@H]5[C@H](O)[C@H]3O)[C@H]3CN(N=Cc5ccccc5)C(=O)[C@H]23)OCO4)cc(OC)c1O [Example 3] , recorded IC50 = 23.8

Tested on HCT-116, the item CCCCCCCC(=O)Oc1c(OC)cc([C@@H]2c3cc4c(cc3[C@@H](O[C@@H]3O[C@@H]5CO[C@@H](C)O[C@H]5[C@H](O)[C@H]3O)[C@H]3CNC(=O)[C@H]23)OCO4)cc1OC [Example 11] showed IC50 equal to 17.3

I looked up COc1cc([C@@H]2c3cc4c(cc3[C@@H](O[C@@H]3O[C@@H]5CO[C@@H](C)O[C@H]5[C@H](O)[C@H]3O)[C@H]3CNC(=O)[C@H]23)OCO4)cc(OC)c1O [Example 5] and its IC50 for HCT-116 was 56.1
